For reference, IC50 measured on Dihydrofolate reductase (Pneumocystis carinii):
recorded-metric: IC50 (nM)

Answered examples (5):
> print(dat)
                                smiles.code  readout.value
1   COc1ccc(OC)c(NCc2cnc3nc(N)nc(N)c3c2C)c1             11
2  COc1ccc(OC)c(N(C)Cc2cnc3nc(N)nc(N)c3c2C)c1            700
3  CCOc1ccc(OCC)c(NCc2cnc3nc(N)nc(N)c3c2C)c1            125
4     COc1ccc(SCc2cnc3nc(N)nc(N)c3c2C)cc1OC            150
5   COc1ccc(NCc2cnc3nc(N)nc(N)c3c2C)c(OC)c1             91

[I] Cc1c(CNc2cccc3c2CCCC3)cnc2nc(N)nc(N)c12
[II] COc1cc(NCc2cnc3nc(N)nc(N)c3n2)cc(OC)c1
[III] COc1ccc(OC)c(N(C)Cc2cnc3nc(N)nc(N)c3n2)c1
Challenge: Order the 3 compounds from highest to lowest IC50. // format: requested-order list of labels
Response given: III, II, I
(III: 3900 nM, II: 960 nM, I: 100 nM)

[1] COc1cc(NCc2cnc3nc(N)nc(N)c3n2)cc(C(F)(F)F)c1
[2] COc1ccc(C)cc1NCc1cnc2nc(N)nc(N)c2c1C
Challenge: Looking at recorded values for IC50, does 1 or 2 come in lower? Write down the label attached to your selection.
Response given: 2
(2: 68 nM, 1: 680 nM)

====

Molecular target: Dihydrofolate reductase (Rattus norvegicus, UniProt Q920D2)
Sequence (Q920D2 whole entry): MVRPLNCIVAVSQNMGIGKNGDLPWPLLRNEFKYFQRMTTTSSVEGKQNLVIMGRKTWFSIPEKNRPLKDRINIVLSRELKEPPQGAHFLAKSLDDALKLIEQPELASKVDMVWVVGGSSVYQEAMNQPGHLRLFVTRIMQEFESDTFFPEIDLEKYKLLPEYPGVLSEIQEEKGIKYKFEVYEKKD
recorded-metric: IC50 (µM)

Below are worked cases with known answers.
> print(dat)
                               smiles.code  result.unit  readout.value
1        Cc1cccc(SCc2cnc3nc(N)nc(N)c3n2)c1           µM           8.48
2  Cc1c(CNc2cccc3ccccc23)cnc2nc(N)nc(N)c12           µM           0.11
3     Nc1nc(N)c2nc(CSc3cccc4ccccc34)cnc2n1           µM            8.2
4     COc1cccc(C)c1NCc1cnc2nc(N)nc(N)c2c1C           µM           0.32

[P] Nc1nc(N)c2nc(CCc3cccc4ccccc34)cnc2n1
[Q] COc1cc(NCc2cnc3nc(N)nc(N)c3n2)cc(C(F)(F)F)c1
Challenge: Sorting ascending by IC50, which comes first: P or Q ? When you have decided, please share the label of that item.
Response given: Q

====

The reader will find reported pIC50 values listed item by item below.
Tested on: Toxoplasma gondii
Test: Inhibition of Toxoplasma gondii cell growth
Assay type: functional, organism-based
# pIC50 is unitless: minus log10 of the molar concentration; print number only

Challenge: What value of pIC50 has been recorded for this entry: Cc1cccc(SCc2cnc3nc(N)nc(N)c3n2)c1
Response given: 5.40

Challenge: Can you handle COc1cccc(SCc2cnc3nc(N)nc(N)c3c2C)c1 next?
Response given: 6.70

Challenge: What do you have for COc1ccc(OC)c(NCc2cnc3nc(N)nc(N)c3c2C)c1 ?
Response given: 6.70

Challenge: Param item: Nc1nc(N)c2nc(CNc3cccc4ccccc34)cnc2n1
Response given: 6.60

Challenge: COc1cc(NCc2cnc3nc(N)nc(N)c3c2C)cc(OC)c1OC , same question.
Response given: 6.00

Challenge: Next record, please: COc1cc(NCc2cnc3nc(N)nc(N)c3n2)cc(C(F)(F)F)c1
Response given: 6.00
